Provenance of the data: PubChem BioAssay AID652125

Molecular target: Perilipin-1 (Homo sapiens) + 1-acylglycerol-3-phosphate O-acyltransferase ABHD5 (Homo sapiens) (UniProt O60240+Q8WTS1)
Assay: PubChem AID 652125
Conditions: biochemical ABHD5-PLIN1 interaction, luminescence
Active and inactive are the calls of the source. No rule for the calls is given here.
measured.property: IC50

> print(dat)
                                   compound             obs.value
1  CN1C(=O)c2ccccc2Sc2ccc(NC(=O)NCCc3ccccc3)cc21               3.57 µM
2  O=C(Cc1ccc2c(c1)CCCC2)N1CCN(S(=O)(=O)c2ccc3c(c2)OCCO3)CC1              inactive
3  O=C(CCc1nc2ccccc2s1)N1CCN(S(=O)(=O)c2ccc3c(c2)OCCO3)CC1              inactive
4  CCCCCNC(=O)Nc1ccc2c(c1)Sc1ccccc1C(=O)N2C  > 39.8 µM (inactive)
5  CCCCCCNC(=O)Nc1ccc2c(c1)Sc1ccccc1C(=O)N2C  > 39.8 µM (inactive)

// input: 6 compounds below; output: IC50 for each
1. CCCC(=O)Nc1ccc2c(c1)C(=O)N(C)c1ccccc1O2
2. CC(C)N1C(=O)c2ccccc2Oc2ccc(NC(=O)c3ccccc3)cc21
3. CN1C(=O)c2ccccc2Oc2ccc(NC(=O)c3cccs3)cc21
4. CCCC(=O)N(CCCN1CCOCC1)c1nc2ccc(Cl)cc2s1
5. COc1ccc(CCNC(=O)c2nc(S(=O)(=O)Cc3ccc(F)cc3)ncc2Cl)cc1OC
6. O=C(CCn1cnc2ccccc21)N1CCN(S(=O)(=O)c2ccc3c(c2)OCCO3)CC1

["> 39.8 µM (inactive)", "> 39.8 µM (inactive)", "> 39.8 µM (inactive)", "> 39.8 µM (inactive)", "2.5 µM", "> 39.8 µM (inactive)"]

// input: 8 compounds below; output: IC50 for each
1. CN(C)CCCN(C(=O)C1CCCCC1)c1nc2cc(Cl)ccc2s1
2. O=C(CCc1c[nH]c2ccccc12)N1CCN(S(=O)(=O)c2ccc3c(c2)OCCO3)CC1
3. COc1ccc(CC(=O)N2CCN(S(=O)(=O)c3ccc4c(c3)OCCCO4)CC2)cc1
4. COc1ccc(CC(=O)N2CCCN(S(=O)(=O)c3ccc(C)cc3)CC2)cc1OC
5. CN(C(=O)c1nc(S(C)(=O)=O)ncc1Cl)c1ccccc1
6. O=C(Nc1ccc2ccccc2c1)c1nc(S(=O)(=O)Cc2ccccc2)ncc1Cl
7. CN1C(=O)c2ccccc2Oc2ccc(NC(=O)c3cc4ccccc4[nH]3)cc21
8. NS(=O)(=O)c1ccc(NC(=O)c2nc(S(=O)(=O)Cc3ccccc3)ncc2Cl)cc1

> 39.8 µM (inactive)
> 39.8 µM (inactive)
> 39.8 µM (inactive)
> 39.8 µM (inactive)
3.43 µM
2.2 µM
> 39.8 µM (inactive)
4.22 µM

// input: 6 compounds below; output: IC50 for each
1. CC(NC(=O)CN1CCN(S(=O)(=O)c2ccc3c(c2)OCCCO3)CC1)c1cc2ccccc2o1 (stereo unspecified)
2. CCCS(=O)(=O)c1ncc(Cl)c(C(=O)Nc2ccc(C(=O)OC)cc2)n1
3. Cc1ccc(CS(=O)(=O)c2ncc(Cl)c(C(=O)Nc3cccc(C(F)(F)F)c3)n2)cc1
4. Cc1ccc(CS(=O)(=O)c2ncc(Cl)c(C(=O)N3CCN(C)CC3)n2)cc1
5. CCCC(=O)Nc1ccc2c(c1)C(=O)N(C)c1cc(C)ccc1O2
6. CCCS(=O)(=O)c1ccc(Cl)c(C(=O)Nc2ccc(C(=O)OCC)cc2)c1

1. > 39.8 µM (inactive)
2. 5.42 µM
3. 2.11 µM
4. 5.75 µM
5. > 39.8 µM (inactive)
6. 5.32 µM

// input: 6 compounds below; output: IC50 for each
1. Cc1ccc(CS(=O)(=O)c2ncc(Cl)c(C(=O)Nc3cccc4ccccc34)n2)cc1
2. CN(C)CCCN(C(=O)c1cc2ccccc2oc1=O)c1nc2ccc(Cl)cc2s1
3. CCS(=O)(=O)c1ncc(Cl)c(C(=O)Nc2ccc(S(N)(=O)=O)cc2)n1
4. CN(C)CCCN(C(=O)C1CCCCC1)c1nc2cc(Br)ccc2s1
5. CCS(=O)(=O)c1ncc(Cl)c(C(=O)Nc2ccc(C)cc2)n1
6. Cc1ccc2c(CC(=O)N3CCN(S(=O)(=O)c4ccc5c(c4)OCCCO5)CC3)coc2c1C

["2.29 µM", "inactive", "6.72 µM", "inactive", "3.53 µM", "3.74 µM"]
